Test system: M. massiliense CIP 108297
Protocol Details: MIC, resazurin microtiter assay
Assay type: cell-based
Conditions: Mycobacteroides abscessus, CIP108297, Mueller Hinton II; read-out: MIC M. massiliense CIP 108297
Recorded Endpoint: MIC

The cases that follow already have their MIC on record.
{"columns": ["Compound", "Target Or Test System", "MIC"],
 "data": [
  ["Cc1cc(C)c2cc(C(=O)NCc3cccc(Cl)c3)[nH]c2c1", "M. massiliense CIP 108297", "> 32 µg/mL"],
  ["Cc1cc(C)c2cc(C(=O)NC3CCCCCCC3)[nH]c2c1", "M. massiliense CIP 108297", "0.031 µg/mL"],
  ["Cc1cc(C)c2cc(C(=O)NC34CC5CC(CC(C5)C3)C4)[nH]c2c1", "M. massiliense CIP 108297", "> 32 µg/mL"]
]}

# value of MIC, M. massiliense CIP 108297, item "Cc1cc(C)c2cc(C(=O)NC3CCCC3)[nH]c2c1" = 8 µg/mL

# value of MIC, M. massiliense CIP 108297, item CCCCCCCNC(=O)c1cc2ccccc2[nH]1 [Compound 17, N-heptyl-1H-indole-2-carboxamide] = > 32 µg/mL

# value of MIC, M. massiliense CIP 108297, item "Cc1cc(C)c2cc(C(=O)NC3CCCCC3)[nH]c2c1" = 0.25 µg/mL

# value of MIC, M. massiliense CIP 108297, item Cc1cc(C)c2cc(C(=O)NC3CCC(C)CC3)[nH]c2c1 (stereo not drawn) = ≤ 0.06 µg/mL

# value of MIC, M. massiliense CIP 108297, item "CCCCCCCCNC(=O)c1cc2c(C)cc(C)cc2[nH]1" = > 32 µg/mL

# value of MIC, M. massiliense CIP 108297, item Cc1cc(C)c2cc(C(=O)NC(C)C34CC5CC(CC(C5)C3)C4)[nH]c2c1 (stereo not drawn) = 8 µg/mL

# value of MIC, M. massiliense CIP 108297, item O=C(NC1CCCC1)c1cc2ccccc2[nH]1 [Compound 13, N-cyclopentyl-1H-indole-2-carboxamide] = > 32 µg/mL

###

Test system: M. massiliense CRM 0019
Protocol Details: MIC, resazurin microtiter assay
Assay type: cell-based
Conditions: Mycobacteroides abscessus, CRM0019, Mueller Hinton II; read-out: MIC M. massiliense CRM 0019
// MIC lookup, one value per entry

The cases that follow already have their MIC on record.
{"columns": ["Compound", "MIC"],
 "data": [
  ["O=C(NCc1cccc(Cl)c1)c1cc2ccccc2[nH]1 [Compound 19]", "> 32 µg/mL"],
  ["CC1CCC(NC(=O)c2cc3ccccc3[nH]2)CC1 (centres unmarked) [Compound 14]", "> 32 µg/mL"],
  ["O=C(NCC12CC3CC(CC(C3)C1)C2)c1cc2ccccc2[nH]1 [Compound 8]", "> 32 µg/mL"],
  ["O=C(NC1CCCCCC1)c1cc2ccccc2[nH]1 [Compound 11, N-cycloheptyl-1H-indole-2-carboxamide]", "> 32 µg/mL"]
]}

Here is another compound to look at.
Form field MIC, entry Cc1cc(C)c2cc(C(=O)NCc3cccc(Cl)c3)[nH]c2c1 [Compound 34] : > 32 µg/mL

###

Test system: M. smegmatis mc^2155
Protocol Details: MIC, resazurin microtiter assay
Format: cell-based
Conditions: Mycolicibacterium smegmatis, MC^2155, 7H9-ADC-0.05% Tween 80; read-out: MIC M. smeg. mc^2155
Recorded Endpoint: MIC

The cases that follow already have their MIC on record.
{"columns": ["Compound", "MIC"],
 "data": [
  ["Cc1cc(C)c2cc(C(=O)NCc3cccc(Cl)c3)[nH]c2c1", "> 20 µg/mL"],
  ["O=C(NC1CCCCCC1)c1cc2ccccc2[nH]1 [Compound 11, N-cycloheptyl-1H-indole-2-carboxamide]", "> 20 µg/mL"],
  ["Cc1cc(C)c2cc(C(=O)NC3C4CC5CC(C4)CC3C5)[nH]c2c1 (centres unmarked)", "> 20 µg/mL"]
]}

# value of MIC, M. smegmatis mc^2155, item O=C(NC1CCCCCCC1)c1cc2ccccc2[nH]1 [Compound 10, N-cyclooctyl-1H-indole-2-carboxamide] = 25 µg/mL

# value of MIC, M. smegmatis mc^2155, item "Cc1cc(C)c2cc(C(=O)NC3CCCCCCC3)[nH]c2c1" = 0.313 to 0.625 µg/mL
